System: U251 CNS
Experiment: NCI-60 one-dose screen, 48 h (100 = growth as untreated, 0 = no growth, -100 = all killed)
Conditions: 10 µM unless noted
This is part of a sample that, as a whole, favours compounds with a hit. Of some 83,000 tested, about 20% had one in any assay.
Could you label it Yes if measured growth is 50% or higher, and No otherwise?

Lookup: Evaluate O=C(C1=Cc2cc3ccccc3n2Cc2cnnn21)c1ccc(O)cc1 : growth at minimum 50%?
Found: Yes

Lookup: Evaluate CNC1=CC(=O)c2c(C(=O)OC)c(C)[n+]([O-])c(C)c2C1=O : growth at minimum 50%?
Found: Yes

Lookup: Evaluate CCN1CCN(CCNc2nccc(-c3c(-c4ccc(F)c(OC)c4)nc4sccn34)n2)S1(=O)=O : growth at minimum 50%?
Found: Yes

Lookup: Evaluate Cc1nnc(-c2ccc3c(c2)nc(/C=C/c2ccccc2)n3C2CCCCC2)o1 : growth at minimum 50%?
Found: Yes

Lookup: Evaluate Cc1ccccc1Nc1cc(O)c2c(=O)cc(-c3ccccc3)oc2c1 : growth at minimum 50%?
Found: No

Lookup: Evaluate COc1ccc(/C=C/C(=O)c2cc3c(N)c(C(=O)Nc4cccc(Cl)c4C)sc3nc2C)cc1 : growth at minimum 50%?
Found: No

Lookup: Evaluate Clc1ccccc1-c1cnn2cc(-c3ccccc3)cnc12 : growth at minimum 50%?
Found: Yes

Lookup: Evaluate CCOC(=O)C1=C(C)C(Cl)=N/C1=C\c1[nH]c(Cl)c(C)c1C(=O)OCC : growth at minimum 50%?
Found: Yes

Lookup: Evaluate CN(Cc1cnc2nc(N)nc(N)c2n1)c1ccc(C(=O)NC(CCC(=O)O)C(=O)O)cc1Br (stereo not given) : growth at minimum 50%?
Found: No

Lookup: Evaluate COc1cc(OC)c(/C=C/C(=O)c2c(O)cc(OC)c(C3CCN(C)CC3)c2OC)c(OC)c1 : growth at minimum 50%?
Found: No
